- assay: drug combination growth inhibition, ovarian cancer – cell-based, oncology-focused library, rucaparib conditional, profiling panel (AID 1508598)
- condition.label: patient-derived ovarian cancer cells, CellTiter-Glo viability, 144 h; at 0.000305 µM; OCI-C5x cells; without rucaparib; hits give low values
readout.name: viability (%)
Give bare numbers, in %.

{"smiles.string": "COc1cc(C(=O)NC2CCN(C)CC2)ccc1Nc1ncc2c(n1)N(C1CCCC1)CC(F)(F)C(=O)N2C", "measured": 98.4}
{"smiles.string": "Cc1cc([N+](=O)[O-])ccc1NS(=O)(=O)c1cc(Cl)ccc1Cl", "measured": 110}
{"smiles.string": "COc1cccc2c1C(=O)c1c(O)c3c(c(O)c1C2=O)C[C@@](O)(C(C)=O)C[C@H]3O[C@H]1C[C@H](N)[C@H](O)[C@H](C)O1", "measured": 110}
{"smiles.string": "COC1=C2C[C@H](C)C[C@@H](OC)[C@H](O)[C@H](C)/C=C(\\C)[C@H](OC(N)=O)[C@@H](OC)/C=C/C=C(\\C)C(=O)NC(=CC1=O)C2=O", "measured": 99.7}
{"smiles.string": "CO[C@H]1C[C@H]2CC[C@@H](C)[C@@](O)(O2)C(=O)C(=O)N2CCCC[C@H]2C(=O)O[C@H]([C@H](C)C[C@@H]2CC[C@H](OC(=O)C(C)(CO)CO)[C@H](OC)C2)CC(=O)[C@H](C)/C=C(\\C)[C@@H](O)[C@@H](OC)C(=O)[C@H](C)C[C@H](C)/C=C/C=C/C=C/1C", "measured": 93.2}

Give its viability value. Item: COc1cc([C@H]2c3cc4c(cc3[C@@H](O[C@@H]3O[C@@H]5CO[C@@H](C)O[C@H]5[C@H](O)[C@@H]3O)[C@H]3COC(=O)[C@H]23)OCO4)cc(OC)c1O
108
